pIC50: −log10 of the molar value.
So I've got pIC50 readings for SARS-CoV-2 3CL-protease (Severe acute respiratory syndrome coronavirus 2), take a look.

Worked set:
**Q:** # query: pIC50 | item CC(C)C[C@@H](C(=O)N1C[C@]2(C[C@H]1C#N)C(=O)Nc1ccc(Cl)cc12)N(C)C(=O)c1cc2cccnc2[nH]1 | system: SARS-CoV-2 3CL-protease (Severe acute respiratory syndrome coronavirus 2)
**A:** > 7.00

**Q:** What about this molecule? CN(C(=O)c1cc2c(F)cc(F)c(F)c2[nH]1)[C@@H](CC(C)(C)O)C(=O)N1C[C@]2(C[C@H]1C#N)C(=O)Nc1ccccc12
**A:** 6.00 to 7.00

**Q:** What about this molecule? CC(C)C[C@@H](C(=O)N1C[C@]2(C[C@H]1C#N)C(=O)Nc1ccccc12)N(C)C(=O)c1cc2ccc(C(F)(F)F)cc2[nH]1
**A:** > 7.00

**Q:** What about this molecule? CC(C)C[C@@H](C(=O)N1C[C@]2(C[C@H]1C#N)C(=O)Nc1ccccc12)N(C)C(=O)c1ccc2nc(N)sc2c1
**A:** < 6.00

**Q:** What about this molecule? CN(C(=O)c1nc2cccnc2[nH]1)[C@@H](CC1CC1)C(=O)N1C[C@]2(C[C@H]1C#N)C(=O)Nc1ccc(Cl)cc12
**A:** > 7.00

New cases:
**Q:** # query: pIC50 | item CCCC[C@H](NC(=O)[C@@H](O)c1ccc(F)cc1)C(=O)N1C[C@]2(C[C@H]1C#N)C(=O)Nc1ccccc12 | system: SARS-CoV-2 3CL-protease (Severe acute respiratory syndrome coronavirus 2)
**A:** > 7.00

* * *

Biological target: SARS-CoV-2 3CL-protease (Severe acute respiratory syndrome coronavirus 2)
pIC50: −log10 of the molar value.
# key: entry, value: pIC50

**Q:** # lookup: pIC50 of N#C[C@@H]1C[C@@]2(CN1C(=O)[C@H](CC1CC1)NC(=O)OCc1c(F)cccc1F)C(=O)Nc1ccc(Cl)cc12
**A:** > 7.00

**Q:** What about this compound? CC(C)C[C@@H](C(=O)N1C[C@]2(C[C@H]1C#N)C(=O)Nc1ccccc12)N(C)C(=O)c1ccc2cn[nH]c2c1
**A:** 6.00 to 7.00

**Q:** What about this compound? CN(C(=O)c1ccn(C2CC2)n1)[C@@H](Cc1ccccc1)C(=O)N1C[C@]2(C[C@H]1C#N)C(=O)Nc1ccccc12
**A:** > 7.00

**Q:** What about this compound? CC(C)C[C@@H](C(=O)N1C[C@]2(C[C@H]1C#N)C(=O)Nc1ccccc12)N(C)C(=O)c1cccc2ccccc12
**A:** > 7.00

**Q:** What about this compound? CC(C)C[C@@H](C(=O)N1C[C@]2(C[C@H]1C#N)C(=O)Nc1ccccc12)N(C)C(=O)[C@@H]1CCN(C(=O)OC(C)(C)C)C1
**A:** > 7.00

Below: the item to evaluate.
**Q:** # lookup: pIC50 of CN(C(=O)Cc1ccncc1)[C@@H](CC(C)(C)F)C(=O)N1C[C@]2(C[C@H]1C#N)C(=O)Nc1ccc(Cl)cc12
**A:** > 7.00

* * *

So I've got IC50 readings for SARS-CoV-2 3CL-protease (Severe acute respiratory syndrome coronavirus 2), take a look.

Worked set:
**Q:** # lookup: IC50 of CN(C(=O)c1cnc(C(F)(F)F)[nH]1)[C@@H](CC1CC1)C(=O)N1C[C@]2(C[C@H]1C#N)C(=O)Nc1ccccc12
**A:** < 100 nM

**Q:** What about this compound? CC(C)C[C@@H](C(=O)N1C[C@]2(C[C@H]1C(=O)CO)C(=O)Nc1ccccc12)N(C)C(=O)c1cc2c(F)cc(F)cc2[nH]1
**A:** > 1000 nM

**Q:** What about this compound? CC(C)C[C@@H](C(=O)N1C[C@]2(C[C@H]1C#N)C(=O)Nc1ccccc12)N(C)C(=O)c1cc(Cl)c2nn(C3CC3)cc2c1
**A:** < 100 nM

New cases:
**Q:** # lookup: IC50 of CN(C(=O)c1cc2c(F)cc(F)c(F)c2[nH]1)[C@@H](CCC(C)(C)C)C(=O)N1C[C@]2(C[C@H]1C#N)C(=O)Nc1ccccc12
**A:** < 100 nM

**Q:** What about this compound? CN(C(=O)[C@H](O)c1ccc(F)cc1)[C@@H](CC1CC1)C(=O)N1C[C@]2(C[C@H]1C#N)C(=O)Nc1ccccc12
**A:** < 100 nM

**Q:** What about this compound? CC(C)C[C@@H](C(=O)N1C[C@]2(C[C@H]1C#N)C(=O)Nc1ccccc12)N(C)C(=O)c1cncc(C(F)(F)F)c1
**A:** < 100 nM

**Q:** What about this compound? CC(C)C[C@@H](C(=O)N1C[C@]2(C[C@H]1C#N)C(=O)Nc1ccccc12)N(C)C(=O)[C@H](c1cn(C)nn1)C(C)C
**A:** < 100 nM

**Q:** What about this compound? CC(C)C[C@@H](C(=O)N1C[C@]2(C[C@H]1C#N)C(=O)Nc1ccccc12)N(C)C(=O)c1cncc(F)c1
**A:** < 100 nM

**Q:** What about this compound? CC(C)C[C@@H](C(=O)N1C[C@]2(C[C@H]1C#N)C(=O)Nc1ccccc12)N(C)C(=O)c1ccc2ncc(F)cc2c1
**A:** < 100 nM

**Q:** What about this compound? CN(C)CCC(=O)N(C)[C@@H](CC(C)(C)F)C(=O)N1C[C@]2(C[C@H]1C#N)C(=O)Nc1ccccc12
**A:** < 100 nM

**Q:** What about this compound? [2H]C([2H])([2H])N(C(=O)c1cnn(-c2ccc(C(F)(F)F)cc2)c1)[C@@H](CC1CC1)C(=O)N1C[C@]2(C[C@H]1C#N)C(=O)Nc1ccccc12
**A:** < 100 nM

**Q:** What about this compound? Cc1c(C(=O)N[C@@H](CC2CC2)C(=O)N2C[C@]3(C[C@H]2C#N)C(=O)Nc2ccc(Cl)cc23)sc2cccc(F)c12
**A:** < 100 nM

**Q:** What about this compound? CC(C)C[C@@H](C(=O)N1C[C@]2(C[C@H]1C=O)C(=O)Nc1ccccc12)N(C)C(=O)c1cc2c(F)cc(F)cc2[nH]1
**A:** < 100 nM
